- target-under-test: GST-Dm-Relish (Drosophila melanogaster, UniProt Q94527 99-473)
- Sequence: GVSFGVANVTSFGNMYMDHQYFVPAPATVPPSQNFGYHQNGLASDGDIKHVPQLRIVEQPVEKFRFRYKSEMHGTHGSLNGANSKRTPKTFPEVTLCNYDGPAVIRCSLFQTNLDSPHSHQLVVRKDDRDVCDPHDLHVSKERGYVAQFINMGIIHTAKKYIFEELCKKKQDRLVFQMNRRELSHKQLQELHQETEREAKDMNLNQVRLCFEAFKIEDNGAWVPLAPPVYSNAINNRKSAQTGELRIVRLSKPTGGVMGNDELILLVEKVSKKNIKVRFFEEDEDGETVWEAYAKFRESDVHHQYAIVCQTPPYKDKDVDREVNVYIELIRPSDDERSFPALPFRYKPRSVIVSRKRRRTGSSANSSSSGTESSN
- measurement-notes: protein-binding microarray (PBM); PBM: ~300 nM protein, 6 mM HEPES pH 7.8, 80 mM KCl, 0.5 mM EDTA, 0.5 mM EGTA, 6% glycerol, 35 ng/ul poly-dIdC, 1% milk, 1 h, room temperature; Ap Aiptasia and Nv Nematostella (sea anemones) / Co Capsaspora / Aq Amphimedon (sponge) / Dm Drosophila / Hu human; RHD is the Rel homology domain; high values mean tight binding
- conditions: dsDNA, one strand shown
measured-metric: binding signal

INSERT INTO results (sequence_content, target_under_test, recorded_result) VALUES
  ('CCGATTAACATCACCGTTTCCCCTGATGTTAATCGGGTCTTGATTCGCTTGACGCTGCTG', 'GST-Dm-Relish (Drosophila melanogaster, UniProt Q94527 99-473)', '2.77 z-score'),
  ('CCGATTAACATCACGGAAATACCTGATGTTAATCGGGTCTTGATTCGCTTGACGCTGCTG', 'GST-Dm-Relish (Drosophila melanogaster, UniProt Q94527 99-473)', '2.56 z-score'),
  ('CCGATTAACATCACGGGACATACTGATGTTAATCGGGTCTTGATTCGCTTGACGCTGCTG', 'GST-Dm-Relish (Drosophila melanogaster, UniProt Q94527 99-473)', '1.8 z-score'),
  ('CCGATTAACATCAATTTTCCCCATGATGTTAATCGGGTCTTGATTCGCTTGACGCTGCTG', 'GST-Dm-Relish (Drosophila melanogaster, UniProt Q94527 99-473)', '2.3 z-score'),
  ('CCGATTAACATCAATATTTACCCTGATGTTAATCGGGTCTTGATTCGCTTGACGCTGCTG', 'GST-Dm-Relish (Drosophila melanogaster, UniProt Q94527 99-473)', '1.66 z-score'),
  ('CCGATTAACATCACAGAAAATCCTGATGTTAATCGGGTCTTGATTCGCTTGACGCTGCTG', 'GST-Dm-Relish (Drosophila melanogaster, UniProt Q94527 99-473)', '1.19 z-score'),
  ('CCGATTAACATCAGGCGAACCCCTGATGTTAATCGGGTCTTGATTCGCTTGACGCTGCTG', 'GST-Dm-Relish (Drosophila melanogaster, UniProt Q94527 99-473)', '1.37 z-score'),
  ('CCGATTAACATCAGAGAAGCCCCTGATGTTAATCGGGTCTTGATTCGCTTGACGCTGCTG', 'GST-Dm-Relish (Drosophila melanogaster, UniProt Q94527 99-473)', '3.44 z-score'),
  ('CCGATTAACATCAAGGAATGCCCTGATGTTAATCGGGTCTTGATTCGCTTGACGCTGCTG', 'GST-Dm-Relish (Drosophila melanogaster, UniProt Q94527 99-473)', '1.35 z-score');

The reported numbers originate from paper PMC5700166.
